- assayedTarget: human M4 receptor (Homo sapiens (Human), UniProt P08173)
- Sequence (P08173 whole entry): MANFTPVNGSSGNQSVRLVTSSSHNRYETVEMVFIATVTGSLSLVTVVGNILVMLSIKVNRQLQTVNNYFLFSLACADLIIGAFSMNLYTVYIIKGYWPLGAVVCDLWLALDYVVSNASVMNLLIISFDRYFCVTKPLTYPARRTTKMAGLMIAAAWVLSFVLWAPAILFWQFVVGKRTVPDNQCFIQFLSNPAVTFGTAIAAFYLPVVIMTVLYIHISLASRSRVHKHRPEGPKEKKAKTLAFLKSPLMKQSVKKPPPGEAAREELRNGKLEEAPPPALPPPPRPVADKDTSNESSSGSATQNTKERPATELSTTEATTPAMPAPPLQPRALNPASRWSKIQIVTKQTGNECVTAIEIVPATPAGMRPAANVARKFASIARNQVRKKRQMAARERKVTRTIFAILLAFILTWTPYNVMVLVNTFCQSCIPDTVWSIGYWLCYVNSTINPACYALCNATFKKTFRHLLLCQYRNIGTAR
- assayOverview: Radioligand (tritiated N-methylscopolamine) binding assay, M4
- assayConditions: Ki against the M4 receptor; membranes from CHO cells expressing human M4; tritiated N-methylscopolamine 1.5 nM; read-out: Ki
pKi: −log10 of the molar value.
Measured pKi accompanies every entry in the list below.

Look over these answered cases.
{"molecule": "Cc1c(C(=O)NCCC2CCN(Cc3ccccc3)CC2)cnc2cc(-c3cccnc3F)nn12 [18-18]", "result": "6.00 to 7.00"}
{"molecule": "C[C@@H]1CN(c2ncc(F)cc2F)C[C@H](C)N1C(=O)NCCC1CCN(Cc2ccccc2)CC1 [22-5]", "result": "> 8.00"}
{"molecule": "C[C@@H]1CN(c2ncc(C(=O)NC3CC3)cn2)C[C@H](C)N1C(=O)NCCC1CCN(Cc2ccccc2)CC1 [27-1]", "result": "7.00 to 8.00"}
{"molecule": "CC1(C(=O)NCCC2CCN(Cc3ccccc3)CC2)CCN(c2cccc(OC(F)(F)F)c2)CC1 [10-25]", "result": "7.00 to 8.00"}
{"molecule": "C[C@@H]1CN(c2ccc(F)c(F)c2)CCN1C(=O)NCCC1CCN(Cc2ccccc2)CC1 [4-15]", "result": "> 8.00"}
{"molecule": "C[C@@H]1CN(c2nccc(C#N)n2)C[C@H](C)N1C(=O)NCCC1CCN(Cc2ccccc2)CC1 [4-14]", "result": "> 8.00"}

stdin: What is its pKi for human M4 receptor (Homo sapiens (Human), UniProt P08173)? Entry: O=C(NCC[C@@H]1CCN(Cc2ccccc2)C1)C1CCN(c2ccc(OC(F)(F)F)cc2)CC1 [9-66]
stdout: 6.00 to 7.00

stdin: What is its pKi for human M4 receptor (Homo sapiens (Human), UniProt P08173)? Entry: Nc1nc(N2CCN(C(=O)NCCC3CCN(Cc4ccccc4)CC3)CC2)ncc1Cl [5-33]
stdout: 7.00 to 8.00

====

Measured pKi accompanies every entry in the list below.
- assayedTarget: human M1 receptor (Homo sapiens (Human), UniProt P11229)
- Sequence (P11229 whole entry): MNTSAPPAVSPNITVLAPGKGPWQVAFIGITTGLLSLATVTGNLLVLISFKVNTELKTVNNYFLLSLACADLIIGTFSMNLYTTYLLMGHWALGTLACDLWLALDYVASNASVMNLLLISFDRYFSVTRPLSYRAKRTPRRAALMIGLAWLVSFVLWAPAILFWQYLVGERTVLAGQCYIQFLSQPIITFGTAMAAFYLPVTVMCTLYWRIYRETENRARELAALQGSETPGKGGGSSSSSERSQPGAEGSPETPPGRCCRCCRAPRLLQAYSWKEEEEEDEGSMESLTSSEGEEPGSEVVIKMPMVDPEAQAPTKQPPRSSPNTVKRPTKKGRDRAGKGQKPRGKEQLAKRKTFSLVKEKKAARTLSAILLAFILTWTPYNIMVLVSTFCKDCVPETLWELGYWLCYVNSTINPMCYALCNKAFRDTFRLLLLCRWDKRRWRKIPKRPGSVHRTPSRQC
- assayOverview: Radioligand (tritiated N-methylscopolamine) binding assay, M1
- assayConditions: CHO cell membranes expressing human M1; 1.5 nM tritiated N-methylscopolamine; 90 min, 37° C.; read-out: Ki against M1 receptor (Table 21, M1)
pKi: −log10 of the molar value.

Look over these answered cases.
{"molecule": "C[C@@H]1CN(c2ncc(C(F)(F)F)cn2)CCN1C(=O)NCCC1CCN(Cc2ccccc2)CC1 [3-9]", "assayedTarget": "human M1 receptor (Homo sapiens (Human), UniProt P11229)", "pKi": "6.00 to 7.00"}
{"molecule": "C[C@@H]1CN(c2cc(F)c(F)c(F)c2)CCN1C(=O)NCCC1CCN(Cc2ccc(O)cc2)CC1 [6-27]", "assayedTarget": "human M1 receptor (Homo sapiens (Human), UniProt P11229)", "pKi": "6.00 to 7.00"}
{"molecule": "O=C(NCCC1CCN(Cc2ccccc2)CC1)C1CCN(c2ncc(C(F)(F)F)cc2Cl)CC1 [9-63]", "assayedTarget": "human M1 receptor (Homo sapiens (Human), UniProt P11229)", "pKi": "7.00 to 8.00"}
{"molecule": "C[C@@H]1CN(c2ccc(OC(F)(F)F)cn2)CCN1C(=O)NCCC1CCN(Cc2ccccc2)CC1 [3-13]", "assayedTarget": "human M1 receptor (Homo sapiens (Human), UniProt P11229)", "pKi": "6.00 to 7.00"}
{"molecule": "C[C@@H]1CN(c2ncc(C#N)c(N)n2)C[C@H](C)N1C(=O)NCCC1CCN(Cc2ccccc2)CC1 [4-54]", "assayedTarget": "human M1 receptor (Homo sapiens (Human), UniProt P11229)", "pKi": "6.00 to 7.00"}

stdin: Fill blank: measured pKi of the molecule C[C@@H]1CN(c2ncc(C#N)cn2)C[C@H](C)N1C(=O)NCCC1CCN(Cc2ccccc2)CC1 [5-20] is ____.
stdout: < 6.00

stdin: Fill blank: measured pKi of the molecule N#Cc1cc(F)cc(N2CCC(C(=O)NCCC3CCN(Cc4ccccc4)CC3)CC2)c1 [10-14] is ____.
stdout: < 6.00

stdin: Fill blank: measured pKi of the molecule C[C@@H]1CN(c2cc(F)c(C#N)c(F)c2)CCN1C(=O)NCCC1CCN(Cc2ccccc2)CC1 [22-12] is ____.
stdout: < 6.00

Values were extracted from patent US11033539B2.
